target: 3-oxo-5-alpha-steroid 4-dehydrogenase 1 (Homo sapiens); assay: Compound was tested in vitro for its inhibitory activity against human 5Alpha-R1 expressed as potency.
Each entry gets not satisfied if its Potency stays under 20 nM, and satisfied if its Potency is 20 nM or above.

The examples below pair each entry with its known result.
{"compound": "CCCc1ccc(OC(C)c2ccc(C(=O)c3cn(CCCC(=O)O)c4ccccc34)cc2)cc1 (stereo unspecified)", "classification": "not satisfied"}
{"compound": "CC(C)Cc1ccc([C@]2(C)Oc3ccc(C(=O)c4cn(CCCC(=O)O)c5ccccc45)cc3O2)cc1", "classification": "satisfied"}

Next:
Hi team, for O=C(O)CCCn1cc(C(=O)c2ccc3c(c2)OC(c2ccccc2)(c2ccccc2)O3)c2ccccc21 , is the recorded Potency at or above 20 nM?
satisfied
